# assay-overview: protein stability index of a GFP-peptide fusion (yeast GPS) (PSI 1-4); higher = more stable; sorted into four equal gates, so the index is relative within each strain
# condition-context: ubr1∆
value-kind: protein stability index
Give a plain numeric answer without units written out.

# residue-codes, value-kind, endpoint-value
data = [
    ("NLSVTSPYNADFDGDEM [RPO21]", "protein stability index", 3.04),
    ("FDVMIDEESLVKYMPEQ [RPO21]", "protein stability index", 2.13),
    ("LPTDGGLTSRLQRQQRK [POP4]", "protein stability index", 3.38),
    ("CTESTRENALYDYYALQ [SNF2]", "protein stability index", 2.91),
    ("KSAYANTEKDYKMVQEQ [SMC2]", "protein stability index", 3.21),
]

Qu. Record request: protein stability index value, item IACVLTVINEQQREAVR [RPL35A]
Ans. 2.23

Qu. Repeat with TDLKKIIKANQLILSDV [RET1]
Ans. 2.39

Qu. Repeat with GKMIELISGKAGVLNGT [RET1]
Ans. 2.6

Qu. Repeat with FTKPPANETDKRPTPPS [YOR098C/NUP1]
Ans. 3.15

Qu. Repeat with ITKLLEINLSKIFQTTP [YCS4]
Ans. 2.6

Qu. Repeat with KSSELELQKLVHDLNKY [SMC2]
Ans. 3.4

Qu. Repeat with ERVPKTQLDKLRPRKDS [SMB1]
Ans. 3.17

Qu. Repeat with YNGFIDIFSNLSSDDLL [YCS4]
Ans. 3.08

Qu. Repeat with LSALFTISSKPDILATD [YCS4]
Ans. 2.98

Source listed as the supplement of paper PMC9732359.
